system: SARS-CoV-2 pseudotyped particles; assay type: cell-based; settings: read-out: IC50, anti-pseudotyped particle activity
readout_type: pIC50
By convention, pIC50 is the negative base-10 log of a molar concentration.

Lookup: Fill in the recorded pIC50 for this molecule, with SARS-CoV-2 pseudotyped particles as test system: CC(C)S(=O)(=O)c1oc(-c2ccc(F)cc2)nc1S(=O)(=O)c1ccccc1 [NCGC00115755-02]
Found: 5.30
